Target: Gal(a1-3)Gal(b1-4)GlcNAc
Test: glycan array binding signal (z-score within array); higher = stronger binding
Settings: glycan notation: IUPAC condensed, linker removed
The full list was thinned out, with the strongest signals kept by preference.
assay_endpoint: glycan array binding signal (z-score)
I only need the number, thanks.

Q: Give a short answer stating reported glycan array binding signal (z-score) for Actd5 (Actinidia), P84527 (protein) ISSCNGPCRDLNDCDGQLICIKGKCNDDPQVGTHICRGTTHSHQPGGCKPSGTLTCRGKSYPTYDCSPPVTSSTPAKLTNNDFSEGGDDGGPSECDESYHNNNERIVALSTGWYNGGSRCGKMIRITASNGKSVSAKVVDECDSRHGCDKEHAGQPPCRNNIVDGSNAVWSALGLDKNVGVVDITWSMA .
Ans: 0.17
